Where do the numbers come from? From patent EP0440303A1.

target or test system: tripeptidase of L.lactis subsp. cremoris Wg2 (Lactococcus lactis subsp. cremoris)
Sequence (P0C2T7 whole entry): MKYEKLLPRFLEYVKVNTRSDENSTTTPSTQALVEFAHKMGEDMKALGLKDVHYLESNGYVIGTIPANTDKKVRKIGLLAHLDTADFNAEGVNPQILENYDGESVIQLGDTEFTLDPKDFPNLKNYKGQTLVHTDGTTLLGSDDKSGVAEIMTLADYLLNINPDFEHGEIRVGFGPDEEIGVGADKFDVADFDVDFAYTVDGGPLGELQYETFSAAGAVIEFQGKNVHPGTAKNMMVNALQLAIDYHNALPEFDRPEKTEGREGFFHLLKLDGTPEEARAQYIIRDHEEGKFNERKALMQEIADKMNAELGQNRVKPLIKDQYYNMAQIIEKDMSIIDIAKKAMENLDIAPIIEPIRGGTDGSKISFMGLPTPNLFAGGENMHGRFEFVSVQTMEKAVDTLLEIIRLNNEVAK
procedure details: Substrate specificity: peptide hydrolysis analysed by TLC
Assay type: biochemical
Set-up: key: + : hydrolysis; - : no hydrolysis
condition description: peptide hydrolysis by the purified peptidase, 2 mM substrate in 20 mM HEPES (pH 7.0), 60 min at 30°C
Where a SMILES comes first, the peptide text is derived from it.
observable: activity

Worked examples follow.
[
  {
    "compound": "NCC(=O)NCC(=O)NC(Cc1ccccc1)C(=O)O (centres unmarked)",
    "observable": "activity",
    "observed measurement": "+"
  },
  {
    "compound": "CC(C)CC(NC(=O)C(NC(=O)C(C)N)C(C)C)C(=O)O (centres unmarked)",
    "observable": "activity",
    "observed measurement": "+"
  },
  {
    "compound": "C[C@H](N)C(=O)N[C@@H](C)C(=O)N[C@@H](C)C(=O)O",
    "observable": "activity",
    "observed measurement": "+"
  },
  {
    "compound": "CC(C)CC(NC(=O)CNC(=O)CN)C(=O)O (centres unmarked)",
    "observable": "activity",
    "observed measurement": "+"
  },
  {
    "compound": "C[C@H](N)C(=O)N[C@@H](C)C(=O)N[C@@H](C)C(=O)N[C@@H](C)C(=O)N[C@@H](C)C(=O)N[C@@H](C)C(=O)O",
    "observable": "activity",
    "observed measurement": "-"
  }
]

Respectfully, I request activity for each entry included below.
1. NCC(=O)NCC(=O)NCC(=O)O [Gly-Gly-Gly] (H-Gly-Gly-Gly-OH)
2. NCC(=O)NCC(=O)O [Gly-Gly] (H-Gly-Gly-OH)
3. N[C@@H](Cc1c[nH]c2ccccc12)C(=O)NCC(=O)NCC(=O)O [Trp-Gly-Gly] (H-Trp-Gly-Gly-OH)

1. +
2. -
3. +
